The entries below come with measured sfGFP reporter fluorescence values attached.
B1: library; numbered along this chain (parent)
chain: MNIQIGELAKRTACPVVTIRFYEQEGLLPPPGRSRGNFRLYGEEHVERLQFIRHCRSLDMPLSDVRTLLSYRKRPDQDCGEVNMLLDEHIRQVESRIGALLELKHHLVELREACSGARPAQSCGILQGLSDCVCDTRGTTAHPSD

Variants of: B1
method: sfGFP reporter fluorescence (15 h) (µM FITC); higher = higher leak
conditionDescription: library round: Round 0; ligand: none
When you answer, write just the number.

input: Which sfGFP reporter fluorescence value belongs to `P61M` ?
output: 0.0682

input: # sfGFP reporter fluorescence lookup, item `E43L`
output: 0.0511

input: I'd like to know its sfGFP reporter fluorescence. The variant in question is `V108I`
output: 0.0566

input: Endpoint output: sfGFP reporter fluorescence of `R111M` . Value?
output: 0.0577

input: Entry `D135A` : reported sfGFP reporter fluorescence = ?
output: 0.0733

input: Tell me the measured sfGFP reporter fluorescence of `L62W` , please.
output: 0.0616

input: // lookup sfGFP reporter fluorescence for `C79N`
output: 0.0592

input: Quick one: sfGFP reporter fluorescence of `R33L` ?
output: 0.0605

input: Quick one: sfGFP reporter fluorescence of K104V L107A ?
output: 0.166

input: Which measured sfGFP reporter fluorescence value corresponds to `L58R` ?
output: 0.0614

input: Please give the measured sfGFP reporter fluorescence for this variant: `I90C`
output: 0.0592

input: Fill in the blank: the reported sfGFP reporter fluorescence of `L129E` is ____.
output: 0.0581
